- tested_on: T1, Extracellular domain of TIM-3 with Flag and His tag (human)
- T1 construct: also called TIM-3-Flag-His
- experiment_notes: Biacore SPR; antibody as stationary phase, 'TIM-3-His' as mobile phase
experimental_endpoint: pKd
// returns pKd (minus log10 of molar concentration), number only

h1701-009NHA (antibody, human IgG4 S228P, kappa, V domains shown, HCDR2 point-mutation variant of h1701-009 (NNG to NHA); IgG4 (S228P)/kappa) VH: QVQLVQSGAEVKKPGASVKVSCKASGYTFTDYYMNWVRQAPGQGLEWMGDIIPNHAGSKYNQKFKDRVTMTTDTSTSTAYMELRSLRSDDTAVYYCATWGYGSSYRWFDYWGQGTLVTVSS VL: DIQMTQSPSSLSASVGDRVTITCLASQPIGIWLAWYQQKPGKAPKLLIYAATSLADGVPSRFSGSGSGTDFTFTISSLQPEDIATYYCQQLYSSPWTFGGGTKVEIKR	9.22

Kindly review the next binder as well.
Prompt line: Give pKd for h1701-009NKG (antibody, human IgG4 S228P, kappa, V domains shown, HCDR2 point-mutation variant of h1701-009 (NNG to NKG); IgG4 (S228P)/kappa) VH: QVQLVQSGAEVKKPGASVKVSCKASGYTFTDYYMNWVRQAPGQGLEWMGDIIPNKGGSKYNQKFKDRVTMTTDTSTSTAYMELRSLRSDDTAVYYCATWGYGSSYRWFDYWGQGTLVTVSS VL: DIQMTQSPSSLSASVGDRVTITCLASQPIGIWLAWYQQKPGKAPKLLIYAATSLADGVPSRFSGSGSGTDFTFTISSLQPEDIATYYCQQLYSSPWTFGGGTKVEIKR
Response line: 9.33
